- Test system: Hs578T multi-cell spheroids, viability
- Protocol text: Anticancer human tumor Hs578T cell line growth inhibition [IpAb];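 also: drug exposure lasted 7 days before readout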
- Run conditions: second compound 0.1 µM; first compound 0.001 µM; hits give low values
- Method: Combinatorial screen of targeted agents with ipatasertib and abemaciclib in multi-cell type tumor spheroids […] Compounds. […] If the clinical Cmax for an agent had not been determined, the highest concentration tested was 10 microM. NCI60 Cell Culture. […] The optimal seeding densities for each of the cell lines at each time point assessed were determined prior to performing the concentration response studies. […]
# viability, T/C listing for each entry below
Quick reminder: number only, in %, skip the unit.

Known results for compounds:
CC(C)n1nc(-c2ccc3oc(N)nc3c2)c2c(N)ncnc21 + CCN1CCN(Cc2ccc(Nc3ncc(F)c(-c4cc(F)c5nc(C)n(C(C)C)c5c4)n3)nc2)CC1: 78.1
CC(C)n1nc(-c2ccc3oc(N)nc3c2)c2c(N)ncnc21 + CC(C)NCC(C(=O)N1CCN(c2ncnc3c2C(C)CC3O)CC1)c1ccc(Cl)cc1: 86.6
Cn1ncnc1[C@H]1c2n[nH]c(=O)c3cc(F)cc(c23)N[C@@H]1c1ccc(F)cc1 + CCN1CCN(Cc2ccc(Nc3ncc(F)c(-c4cc(F)c5nc(C)n(C(C)C)c5c4)n3)nc2)CC1: 87.8

Next:
Task item: Name the recorded viability, T/C for Cn1ncnc1[C@H]1c2n[nH]c(=O)c3cc(F)cc(c23)N[C@@H]1c1ccc(F)cc1 + CC(C)NCC(C(=O)N1CCN(c2ncnc3c2C(C)CC3O)CC1)c1ccc(Cl)cc1 .
Reply: 95.3
